targetOrTestSystem: human melanocortin 1 receptor (human, UniProt Q01726 1-317)
Sequence (Q01726 whole entry): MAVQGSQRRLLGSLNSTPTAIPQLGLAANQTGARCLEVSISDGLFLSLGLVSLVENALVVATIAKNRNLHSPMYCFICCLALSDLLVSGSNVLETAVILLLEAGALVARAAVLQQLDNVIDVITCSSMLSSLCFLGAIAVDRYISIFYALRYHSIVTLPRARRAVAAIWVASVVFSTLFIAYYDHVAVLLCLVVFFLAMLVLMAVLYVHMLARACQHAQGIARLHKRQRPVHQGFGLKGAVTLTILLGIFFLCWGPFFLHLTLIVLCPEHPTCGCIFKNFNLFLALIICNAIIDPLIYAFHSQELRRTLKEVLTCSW
testDescription: cell-based or functional assay
Positions of bridges follow the written chain, without caps; N, C: chain ends. Non-standard residues stand in square brackets, D forms with d. Phe(3,4-(OMe)2) = COc1ccc(C[C@H](N)C(=O)O)cc1OC; Thz = O=C(O)[C@@H]1CSCN1
readoutName: MC1R cAMP EC50

| binder | observedMeasurement |
| --- | --- |
| CAHFXWCAHFXW (D-Phe 4, 10; AGP 5, 11; disulphide Cys1-Cys7; head-to-tail amide Cys1-Trp12, also called c[c[Cys-Ala-His-D-Phe-AGP-Trp-Cys]-Ala-His-D-Phe-AGP-Trp]) [Chem. 42] | > 100 nM |
| cyclo(CAH[dF]R[Phe(3,4-(OMe)2)]CAKKKW) (disulfide 1-7; SMILES COc1ccc(C[C@@H]2NC(=O)[C@H](CCCNC(=N)N)NC(=O)[C@@H](Cc3ccccc3)NC(=O)[C@H](Cc3c[nH]cn3)NC(=O)[C@H](C)NC(=O)[C@@H]3CSSC[C@H](NC2=O)C(=O)N[C@@H](C)C(=O)N[C@@H](CCCCN)C(=O)N[C@@H](CCCCN)C(=O)N[C@@H](CCCCN)C(=O)N[C@@H](Cc2c[nH]c4ccccc24)C(=O)N3)cc1OC, also called c[c[Cys-Ala-His-D-Phe-Arg-3,4-DiMeo-Phe-Cys]-Ala-Lys-Lys-Lys-Trp]) [Chem. 67] | > 55 nM |
| cyclo(CEH[dF]HWCEH[dF]HW) (disulfide 1-7; SMILES O=C(O)CC[C@@H]1NC(=O)[C@@H]2CSSC[C@H](NC(=O)[C@H](Cc3c[nH]c4ccccc34)NC(=O)[C@H](Cc3c[nH]cn3)NC(=O)[C@@H](Cc3ccccc3)NC(=O)[C@H](Cc3c[nH]cn3)NC1=O)C(=O)N[C@@H](CCC(=O)O)C(=O)N[C@@H](Cc1c[nH]cn1)C(=O)N[C@H](Cc1ccccc1)C(=O)N[C@@H](Cc1c[nH]cn1)C(=O)N[C@@H](Cc1c[nH]c3ccccc13)C(=O)N2, also called c[c[Cys-Glu-His-D-Phe-His-Trp-Cys]-Glu-His-D-Phe-His-Trp]) [Chem. 53] | > 10 nM |
| cyclo(C[Thz]H[dF]HWCAAKAW) (disulfide 1-7; SMILES C[C@@H]1NC(=O)[C@H](C)NC(=O)[C@@H]2CSSC[C@H](NC(=O)[C@H](Cc3c[nH]c4ccccc34)NC(=O)[C@H](C)NC(=O)[C@H](CCCCN)NC1=O)C(=O)N1CSC[C@H]1C(=O)N[C@@H](Cc1c[nH]cn1)C(=O)N[C@H](Cc1ccccc1)C(=O)N[C@@H](Cc1c[nH]cn1)C(=O)N[C@@H](Cc1c[nH]c3ccccc13)C(=O)N2, also called c[c[Cys-THAZ-His-D-Phe-His-Trp-Cys]-Ala-Ala-Lys-Ala-Trp]) [Chem. 109] | > 7 nM |
